Test system: K4 kissing-loop RNA reporter
Assay: apparent KD of K4 kissing-loop reporter; higher = weaker reporter binding
Details: Eterna round: R107; input ligand: arginine 13.2 mM
Measured apparent KD of K4 kissing-loop reporter by item
Express your answer in nM, writing the number without its unit.

These recorded examples may help you get a feel for the data.
[[record]]
input_sequence = "AUGCGACGUGCGGCCGCCACUCGGAUGCGAGUGAUGUUCGCGGGCCGGCCGCAAGGCCGGCAUUCGAGGACCGGGCAUCGGUGUA [#2 Same State - Tryptophan B Attempt #1 (HarryS)]"
measurement_type = "apparent KD of K4 kissing-loop reporter"
reported = 496

[[record]]
input_sequence = "GCCGUAGAUUGAAGGAGCGGGCCGUAGUGAUGUUACGCCAAAUUAUCCUUUCUUGAGGUGGUCCAGGUAGGUCGCAAUCUACGGC"
measurement_type = "apparent KD of K4 kissing-loop reporter"
reported = 144


query: # query: apparent KD of K4 kissing-loop reporter | item CCGUAGAACGGAAGGAGCGCCAUAGAUAAGAAUUCCGUAAGUGAGUGAUGUUCACACAAAUGGCAGGUAGGUCGCCGUUAUUUAG [Arg B Ex t5] | system: K4 kissing-loop RNA reporter;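 also: bound reporter read as fluorescence of individual clusters on recovered sequencing chips by microscopy, with normalized cluster intensities fitted with a binding model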
result: 194

query: Try GGACAACUAUGUCCCAUACAAACAAGAGAUACCAGCCAUCAUAGAGGCCCUUGGCAGCUCAUAUAAUCCAGUGAUGUUGGAUUUC [Atgebeus] next.
result: 215

query: Param item: GGCCCGGGCUCGGCCGCCACUCCCUCGUACCGCAAGGUAUGAUACCGAGUGAUGUUCGGUUGGAGGAGGACCGGGAGCCCGGGCC [#2 Exclusion - Tryptophan B Attempt #6 (HarryS)]
result: 118

query: Field entry: UUCUUGAUGGAAACAUCGAGAAUUACUGAUACCAGUAUCGAUAGAUACCCUUGGCAGCAGAAUCAGUAAUAACGAGUGAUGUUCG [Ex Theophylline A K4 4]
result: 254
